Target: M44-modified L NTAA target peptides (M44-L-P2-peptide)
Assay: Gini coefficient of P2 tolerance from multiplex encoding heatmap

| Binder | P2 score |
| --- | --- |
| engineered M44-L binder (SEQ ID NO: 21) (designed binder, not shown: small tags and cut ends; large carriers) QVSVQPNFQQDKFLGRWFYAGHASNSSWYREKVAALSMAKLVVAPATDGGLNATETFLRKNQCETITSLLQPAGSLGSYSSRSPHGGSTWSTSVVETDYDQYALLYLQGSKGPGEDFRGAILASRTQTPRAELKEKFTAFSKAQGFTEDTIVFLPQTDKCMTEQ | 0.408 |
| engineered M44-L binder (SEQ ID NO: 31) (designed binder, not shown: small tags and cut ends; large carriers) QDSTQNLIPAPPLISVPLQPGFWTERFQGRWFLVGFAGNAVQKERQSRLTMQSLILELQEDNSYNITAINVRGQGCRYIISTLVPSSRPGQFTLGNIHSYPQIQSLDVQVADTDYDQFAMVFLQGTSENKQYFEVALAGRTKGLSDELKERFVSFAKSLGLKDNNIVFSVPTDQCIDN | 0.331 |
| SEQ ID NO 38 (designed binder, not shown: small tags and cut ends; large carriers) QVSVQPNFQQDKFLGRWFPAGFASNSSWDREKPAALSLAKMVVAPATDGGLNWTETYLRKNQCETTTHLLQPAGSLGSYSYRSPHFGSTRSLSVVETDYDQYALFYSQGSKGPGEDHRGAWLLSRTQTPRAELKEKFTAFSKAQGFTEDTIVFLPQTDKCMTEQ | 0.251 |
